Listed below: EC50 values for each entry.
Molecular target: Beta-1 adrenergic receptor (Rattus norvegicus)
Assay: Agonist activity at beta1 adrenoceptor in rat left atria assessed as induction of ionotropic effect
Record the value in µM, omitting the unit from your answer.

O=C(Nc1cccc(CCNCC(O)c2ccc(O)c3[nH]c(=O)ccc23)c1)NC(c1ccccc1)c1ccccc1 (stereo not given) = 8.89
O=C(NCc1ccccc1)Nc1cccc(CCNCC(O)c2ccc(O)c3[nH]c(=O)ccc23)c1 (stereo not given) = 0.9

Proceeding to the next compound to report its EC50.
Request: Which EC50 value belongs to COc1ccccc1CNC(=O)Nc1cccc(CCNCC(O)c2ccc(O)c3[nH]c(=O)ccc23)c1 (stereo not given) ?
Response: 0.55

----------
Biological target: Beta-1 adrenergic receptor (Rattus norvegicus, UniProt P18090)
Sequence (P18090 whole entry): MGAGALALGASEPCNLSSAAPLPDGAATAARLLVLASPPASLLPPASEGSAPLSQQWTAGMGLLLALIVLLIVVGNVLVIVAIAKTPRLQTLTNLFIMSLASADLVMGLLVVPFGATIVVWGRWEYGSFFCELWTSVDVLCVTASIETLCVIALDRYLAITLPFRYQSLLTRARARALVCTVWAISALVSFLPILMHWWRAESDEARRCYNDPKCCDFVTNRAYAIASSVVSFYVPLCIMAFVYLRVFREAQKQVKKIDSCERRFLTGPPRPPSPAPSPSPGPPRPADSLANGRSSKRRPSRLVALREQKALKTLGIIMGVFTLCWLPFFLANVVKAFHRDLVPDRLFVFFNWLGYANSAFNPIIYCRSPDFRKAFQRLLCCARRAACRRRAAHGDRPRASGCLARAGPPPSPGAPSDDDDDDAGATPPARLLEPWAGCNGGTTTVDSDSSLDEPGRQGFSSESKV
Assay: Agonist activity at beta1 adrenoceptor in rat left atria assessed as induction of ionotropic effect
assay.metric: EC50 (µM)
Record the value in µM, omitting the unit from your answer.

Example cases with answers are listed next.
O=C(Nc1cccc(CCNCC(O)c2ccc(O)c3[nH]c(=O)ccc23)c1)Nc1ccccc1-c1ccccc1 (configuration not stated) = 5.77
O=C(Nc1cccc(CCNCC(O)c2ccc(O)c3[nH]c(=O)ccc23)c1)Nc1cccc(Oc2ccccc2)c1 (configuration not stated) = 10

Proceeding to the next compound to report its EC50.
Request: Which EC50 value belongs to O=C(NCc1c(Cl)cccc1Cl)Nc1cccc(CCNCC(O)c2ccc(O)c3[nH]c(=O)ccc23)c1 (configuration not stated) ?
Response: 1.6

----------
Biological target: Beta-2 adrenergic receptor (Cavia porcellus)
Test: Agonist activity at beta2 adrenoceptor in guinea pig tracheal rings assessed as relaxation of tracheal smooth muscle
assay.metric: pEC50
The value called pEC50 is obtained by taking minus log10 of the concentration in mol/L.

Request: Which pEC50 value belongs to O=C(NCCc1ccccc1)Nc1cccc(CCNCC(O)c2ccc(O)c3[nH]c(=O)ccc23)c1 (stereo not given) ?
Response: 10.05

Request: Which pEC50 value belongs to "NC(=O)C(c1ccccc1)(c1ccccc1)[C@@H]1CCN(CCc2ccc3c(c2)CCO3)C1" ?
Response: 9.00

Request: Which pEC50 value belongs to O=C(NCc1ccccc1)Nc1cccc(CCNCC(O)c2ccc(O)c3[nH]c(=O)ccc23)c1 (stereo not given) ?
Response: 9.70

Request: Which pEC50 value belongs to O=C(NCc1ccc(F)cc1)Nc1cccc(CCNCC(O)c2ccc(O)c3[nH]c(=O)ccc23)c1 (stereo not given) ?
Response: 9.70

----------
Test system: Cavia porcellus
Test: Bronchocoprotective activity in guinea pig assessed as inhibition of acetylcholine-induced bronchoconstriction administered by aerosol after 4 hrs
Assay type: functional, organism-based
assay.metric: IC50 (µg/mL)
Record the value in µg/mL, omitting the unit from your answer.

Example cases with answers are listed next.
O=C(Nc1cccc(CCNCC(O)c2ccc(O)c3[nH]c(=O)ccc23)c1)NC(c1ccccc1)c1ccccc1 (stereo not drawn) = 1
O=C(NCCCc1ccccc1)Nc1cccc(CCNCC(O)c2ccc(O)c3[nH]c(=O)ccc23)c1 (stereo not drawn) = 1
O=C(Nc1cccc(CCNCC(O)c2ccc(O)c3[nH]c(=O)ccc23)c1)Nc1ccccc1-c1ccccc1 (stereo not drawn) = 3
O=C(NCc1ccccc1)Nc1cccc(CCNCC(O)c2ccc(O)c3[nH]c(=O)ccc23)c1 (stereo not drawn) = 0.3
NC(=O)C(c1ccccc1)(c1ccccc1)[C@@H]1CCN(CCc2ccc3c(c2)CCO3)C1 [DARIFENACIN] = 5

Request: Which IC50 value belongs to O=C(NCCc1ccccc1)Nc1cccc(CCNCC(O)c2ccc(O)c3[nH]c(=O)ccc23)c1 (stereo not drawn) ?
Response: 2

Request: Which IC50 value belongs to O=C(Nc1ccccc1)Nc1cccc(CCNCC(O)c2ccc(O)c3[nH]c(=O)ccc23)c1 (stereo not drawn) ?
Response: 0.2

Request: Which IC50 value belongs to O=C(NCc1c(Cl)cccc1Cl)Nc1cccc(CCNCC(O)c2ccc(O)c3[nH]c(=O)ccc23)c1 (stereo not drawn) ?
Response: 4

----------
System: Cavia porcellus
Assay: Bronchocoprotective activity in guinea pig assessed as inhibition of acetylcholine-induced bronchoconstriction administered by aerosol after 24 hrs
Format: functional, organism-based
assay.metric: IC50 (µg/mL)
Record the value in µg/mL, omitting the unit from your answer.

Example cases with answers are listed next.
O=C(NCCCc1ccccc1)Nc1cccc(CCNCC(O)c2ccc(O)c3[nH]c(=O)ccc23)c1 (stereo not drawn) = 3
NC(=O)C(c1ccccc1)(c1ccccc1)[C@@H]1CCN(CCc2ccc3c(c2)CCO3)C1 = 12
O=C(Nc1cccc(CCNCC(O)c2ccc(O)c3[nH]c(=O)ccc23)c1)NC(c1ccccc1)c1ccccc1 (stereo not drawn) = 1.5
O=C(Nc1ccccc1)Nc1cccc(CCNCC(O)c2ccc(O)c3[nH]c(=O)ccc23)c1 (stereo not drawn) = 3

Proceeding to the next compound to report its IC50.
Request: Which IC50 value belongs to O=C(Nc1cccc(CCNCC(O)c2ccc(O)c3[nH]c(=O)ccc23)c1)Nc1ccccc1-c1ccccc1 (stereo not drawn) ?
Response: 7

----------
Listed below: pEC50 values for each entry.
Target: Beta-1 adrenergic receptor (Rattus norvegicus, UniProt P18090)
Assay: Agonist activity at beta1 adrenoceptor in rat left atria assessed as induction of ionotropic effect
The value called pEC50 is obtained by taking minus log10 of the concentration in mol/L.

Example cases with answers are listed next.
O=C(NCC12CC3CC(CC(C3)C1)C2)Nc1cccc(CCNCC(O)c2ccc(O)c3[nH]c(=O)ccc23)c1 (centres undefined) = 6.53
NC(=O)C(c1ccccc1)(c1ccccc1)[C@@H]1CCN(CCc2ccc3c(c2)CCO3)C1 = 5.64

Proceeding to the next molecule to report its pEC50.
Request: Which pEC50 value belongs to O=C(NCc1ccc(F)cc1)Nc1cccc(CCNCC(O)c2ccc(O)c3[nH]c(=O)ccc23)c1 (centres undefined) ?
Response: 5.20

----------
Target: Beta-2 adrenergic receptor (Cavia porcellus, UniProt Q8K4Z4)
Sequence (Q8K4Z4 whole entry): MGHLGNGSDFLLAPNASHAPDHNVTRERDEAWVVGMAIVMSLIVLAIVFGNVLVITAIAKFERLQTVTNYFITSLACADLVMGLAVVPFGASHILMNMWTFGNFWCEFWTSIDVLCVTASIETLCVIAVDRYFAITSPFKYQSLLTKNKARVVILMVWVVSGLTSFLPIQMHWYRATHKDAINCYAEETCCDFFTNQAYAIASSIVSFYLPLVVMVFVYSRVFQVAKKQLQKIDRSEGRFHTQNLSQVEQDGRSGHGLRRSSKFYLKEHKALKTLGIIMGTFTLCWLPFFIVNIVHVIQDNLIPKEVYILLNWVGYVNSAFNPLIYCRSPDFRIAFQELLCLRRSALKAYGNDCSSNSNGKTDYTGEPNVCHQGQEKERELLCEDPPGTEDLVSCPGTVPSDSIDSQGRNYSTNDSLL
Assay: Agonist activity at beta2 adrenoceptor in guinea pig tracheal rings assessed as relaxation of tracheal smooth muscle
assay.metric: EC50 (nM)
Record the value in nM, omitting the unit from your answer.

Example cases with answers are listed next.
COc1ccccc1CNC(=O)Nc1cccc(CCNCC(O)c2ccc(O)c3[nH]c(=O)ccc23)c1 (stereo unspecified) = 0.2
O=C(Nc1cccc(CCNCC(O)c2ccc(O)c3[nH]c(=O)ccc23)c1)NC(c1ccccc1)c1ccccc1 (stereo unspecified) = 0.2
O=C(Nc1ccccc1)Nc1cccc(CCNCC(O)c2ccc(O)c3[nH]c(=O)ccc23)c1 (stereo unspecified) = 0.07
O=C(Nc1cccc(CCNCC(O)c2ccc(O)c3[nH]c(=O)ccc23)c1)Nc1ccccc1-c1ccccc1 (stereo unspecified) = 0.7
CC(C)(C)c1ccc(CNC(=O)Nc2cccc(CCNCC(O)c3ccc(O)c4[nH]c(=O)ccc34)c2)cc1 (stereo unspecified) = 0.9

Proceeding to the next molecule to report its EC50.
Request: Which EC50 value belongs to NC(=O)c1cccc(CNC(=O)Nc2cccc(CCNCC(O)c3ccc(O)c4[nH]c(=O)ccc34)c2)c1 (stereo unspecified) ?
Response: 0.13

----------
Listed below: IC50 values for each entry.
Test system: Cavia porcellus
Assay: Bronchocoprotective activity in guinea pig assessed as inhibition of acetylcholine-induced bronchoconstriction administered by aerosol after 24 hrs
Format: functional, organism-based

Example cases with answers are listed next.
O=C(NCc1ccccc1)Nc1cccc(CCNCC(O)c2ccc(O)c3[nH]c(=O)ccc23)c1 (stereo not drawn) = > 100 mg/L
O=C(NCc1c(Cl)cccc1Cl)Nc1cccc(CCNCC(O)c2ccc(O)c3[nH]c(=O)ccc23)c1 (stereo not drawn) = > 100 mg/L

Proceeding to the next molecule to report its IC50.
Request: Which IC50 value belongs to O=C(NCCc1ccccc1)Nc1cccc(CCNCC(O)c2ccc(O)c3[nH]c(=O)ccc23)c1 (stereo not drawn) ?
Response: > 10 mg/L
